The reported measurements were obtained from ChEMBL document CHEMBL3393033.

- assay_summary: AUC (0 to 24 hrs) in monkey at 3 mg/kg, po by LC-MS/MS analysis
- particulars: cynomolgus monkey, plasma
property_label: AUC(0-t) at 24 h (µM·h)

Below: 2 compounds and their reported AUC(0-t) at 24 h.
- compound_structure_string: "C[C@H](NS(=O)(=O)c1ccc(-c2c(C#N)c3cc(Cl)cnc3n2C2CCC2)nc1)C(F)(F)F"
  AUC(0-t) at 24 h [µM·h]: 1.03
- compound_structure_string: "COc1cnc2c(c1)c(C#N)c(-c1ccc(S(=O)(=O)N[C@@H](C)C(F)(F)F)cn1)n2C1CCC1"
  AUC(0-t) at 24 h [µM·h]: 2.28

I: Cc1cnc2c(c1)c(C#N)c(-c1ccc(S(=O)(=O)N[C@@H](C)C(F)(F)F)cn1)n2C1CCC1
II: C[C@H](NS(=O)(=O)c1ccc(-c2c(C#N)c3cc(C(F)(F)F)cnc3n2C2CCC2)nc1)C(F)(F)F
III: C[C@H](NS(=O)(=O)c1ccc(-c2c(C#N)c3cc(Cl)cnc3n2C2CCCC2)nc1)C(F)(F)F
Hello, I need these entries ordered by AUC(0-t) at 24 h, highest reading first. Thanks! Reply: labels, ordered per the request. II, I, III
